The values you see were collected from PubChem BioAssay AID720706.

# protocol.text: GFP drop in mixed WT/humanized-ribosome E. coli culture – GFP/RFP fluorescence, OD600, single point, bacterial rRNA inhibitor project, primary screen (AID 720706)
# condition.description: E. coli WT GFP vs humanized-ribosome RFP mutants, 24 h; measured here: OD600 growth, DMSO median 0, no signal -100
The campaign covered roughly 350,000 compounds. About 5,500 (1.6%) were called active. Only a selection was taken, and actives are over-represented in it overall.
Decide using OD600 change: a value greater than or equal to -10% is y, a smaller one is n.

compound: CCCC#Cc1ccc([C@H]2[C@@H](CO)N3CCCCN(S(=O)(=O)Cc4ccccc4)C[C@H]23)cc1
label: n
--
compound: O=S1(=O)CC(N2CCN(Cc3ccccc3F)CC2)CN1Cc1cn(Cc2cccc(C(F)(F)F)c2)nn1 (stereo not drawn)
label: n
--
compound: CCN(CC)CCOCCOc1ccc(Cl)c2ccccc12
label: n
--
compound: Cc1cccc(CN2CCN(C3CN(Cc4cn(Cc5ccccc5F)nn4)S(=O)(=O)C3)CC2)c1 (stereo not drawn)
label: y
--
compound: COc1ccc(Cn2c(=O)oc3ccccc32)cc1
label: y
--
compound: COc1ccc(S(=O)(=O)N[C@@H]2CC[C@@H](CC(=O)N3CCC(Cc4ccccc4)CC3)O[C@@H]2CO)cc1
label: n

Item Cc1nn(-c2ccccc2)c(Cl)c1/C=N/NC(=O)c1nn(C)cc1[N+](=O)[O-] with OD600 change of -10% or above?
y

Threshold query (OD600 change >= -10%) on CN(C(=O)CN(CCO)CC(=O)N(C)C(C)(C)Cc1ccccc1)C(C)(C)Cc1ccccc1
n

Could you please find out whether OC[C@@H]1[C@@H](c2ccccc2)C2(CN(Cc3cccc(F)c3)C2)N1CC1CCCC1 has OD600 change that meets -10% or exceeds it?
n

Quick check, OD600 change >= -10%? COc1ccccc1NC(=S)N1CCN(C(c2ccccc2)c2ccccc2)CC1
y

Is OD600 change for COc1ccc(S(=O)(=O)N(C)C[C@@H]2Oc3ccc(NC(=O)CCC(F)(F)F)cc3C(=O)N([C@@H](C)CO)C[C@@H]2C)cc1 at or above -10%?
y

hey, is OD600 change for this one >= -10%? CCOc1ccccc1CNS(=O)(=O)c1cc(-c2cc(C)no2)ccc1C
n

Check if OD600 change >= -10% (inclusive). Item: CO[C@@H](CN(C)S(=O)(=O)c1ccc(F)cc1)[C@H](C)CN(C(=O)Nc1ccccc1F)[C@@H](C)CO
y

Test whether the compound C[C@H](CO)N1C[C@H](C)[C@@H](CN(C)Cc2ccc3c(c2)OCO3)OCCCC[C@H](C)Oc2ccc(NC(=O)Nc3ccc(C(F)(F)F)cc3)cc2C1=O records OD600 change of -10% or higher.
y

Decide: is the reported value of OD600 change for COc1ccc2c3c(n(C)c2c1)[C@H](CO)N(Cc1ccccc1)CC31CCN(C)CC1 equal to or greater than -10%?
y
